Provenance of the data: patent US20160122426A1

- assay-target: T1, human VEGF (human, UniProt P15692-4 27-191)
- T1 construct: Bought recombinant protein; also called hVEGF; human VEGF-A
- T1 sequence (P15692 other isoform, or with tags, fused parts or gaps limits assumed): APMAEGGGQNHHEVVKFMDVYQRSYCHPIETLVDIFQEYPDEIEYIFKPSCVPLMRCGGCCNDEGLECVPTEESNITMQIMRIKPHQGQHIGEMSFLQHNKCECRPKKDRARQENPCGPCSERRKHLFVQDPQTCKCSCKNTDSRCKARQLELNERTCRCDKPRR
- assay-summary: SPR (BIAcore X100), VEGF on CM5 chip, IgG injected, 1:1 Langmuir
experimental-endpoint: koff (s⁻¹)
The reply should be a number in s⁻¹, with the unit left off.

INPUT: # input binder: HF2-11 (antibody, V domains shown, also called HF-11; clone HF2-11) VH: EVQLVESGGGLVQPGGSLRLSCAASGFLIRSHGMQWVRQAPGKGLEYVAGISSDGSWVKVAAAVEGRFTISRDDSKNTAYLQMNSLRAEDTAVYYCARDFSTGYGADSIDAWGQGTLVTVSS VL: DIQMTQSPSSLSASVGDRVTITCSGGSSEPLGYGWYQQKPGKAPKTLIYWDDKRPSGVPSRFSGSRSGTDFTLTISSLQPEDFATYYCGAWEYSGGVGIFGQGTKVEIK ; wanted: its koff
OUTPUT: 6.8e-06

INPUT: # koff lookup, item HF2-9 (antibody, V domains shown, also called HF-9) VH: EVQLVESGGGLVQPGGSLRLSCAASMFRIRSHGMQWVRQAPGKGLEYVAGISSDGSWFRVAAAVEGRFTISRDDSKNTAYLQMNSLRAEDTAVYYCARDFSTGYGADSIDAWGQGTLVTVSS VL: DIQMTQSPSSLSASVGDRVTITCSGGSMEPLGYGWYQQKPGKAPKTLIYWDDKRPSGVPSRFSGSRSGTDFTLTISSLQPEDFATYYCGAWEYSGGVGIFGQGTKVEIK
OUTPUT: 3.2e-05
